Recorded pIC50 values for a group of compounds are listed next.
test.target: GpIIb/IIIa receptor (Homo sapiens, UniProt P05106+P08514)
Sequence (P08514 32-887 limits assumed): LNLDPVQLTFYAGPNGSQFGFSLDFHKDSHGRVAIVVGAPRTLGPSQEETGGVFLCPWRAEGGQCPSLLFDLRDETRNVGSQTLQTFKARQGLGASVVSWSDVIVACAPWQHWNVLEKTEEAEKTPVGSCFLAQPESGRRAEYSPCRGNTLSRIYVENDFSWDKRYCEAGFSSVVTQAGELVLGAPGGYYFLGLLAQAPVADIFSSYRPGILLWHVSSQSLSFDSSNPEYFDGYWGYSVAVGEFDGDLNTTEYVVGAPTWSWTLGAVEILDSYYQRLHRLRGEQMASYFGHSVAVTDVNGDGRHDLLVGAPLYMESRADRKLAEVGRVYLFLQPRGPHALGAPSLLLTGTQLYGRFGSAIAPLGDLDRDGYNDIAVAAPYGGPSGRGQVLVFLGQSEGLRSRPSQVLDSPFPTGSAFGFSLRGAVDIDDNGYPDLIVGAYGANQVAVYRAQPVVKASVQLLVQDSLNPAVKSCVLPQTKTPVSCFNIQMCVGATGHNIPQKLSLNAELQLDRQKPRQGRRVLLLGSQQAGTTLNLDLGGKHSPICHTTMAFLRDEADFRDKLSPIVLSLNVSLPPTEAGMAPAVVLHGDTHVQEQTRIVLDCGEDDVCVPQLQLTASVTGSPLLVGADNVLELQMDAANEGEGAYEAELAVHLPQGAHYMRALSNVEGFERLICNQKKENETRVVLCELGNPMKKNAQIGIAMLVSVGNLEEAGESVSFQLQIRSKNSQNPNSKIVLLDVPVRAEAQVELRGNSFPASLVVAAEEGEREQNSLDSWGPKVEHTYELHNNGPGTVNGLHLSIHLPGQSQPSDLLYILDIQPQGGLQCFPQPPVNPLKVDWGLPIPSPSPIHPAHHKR
Sequence (P08514 891-1039 partner limits assumed): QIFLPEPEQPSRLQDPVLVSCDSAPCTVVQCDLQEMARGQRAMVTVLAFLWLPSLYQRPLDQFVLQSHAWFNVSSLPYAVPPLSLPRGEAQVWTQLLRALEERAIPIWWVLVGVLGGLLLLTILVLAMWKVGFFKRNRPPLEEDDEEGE
Sequence (P05106 27-788): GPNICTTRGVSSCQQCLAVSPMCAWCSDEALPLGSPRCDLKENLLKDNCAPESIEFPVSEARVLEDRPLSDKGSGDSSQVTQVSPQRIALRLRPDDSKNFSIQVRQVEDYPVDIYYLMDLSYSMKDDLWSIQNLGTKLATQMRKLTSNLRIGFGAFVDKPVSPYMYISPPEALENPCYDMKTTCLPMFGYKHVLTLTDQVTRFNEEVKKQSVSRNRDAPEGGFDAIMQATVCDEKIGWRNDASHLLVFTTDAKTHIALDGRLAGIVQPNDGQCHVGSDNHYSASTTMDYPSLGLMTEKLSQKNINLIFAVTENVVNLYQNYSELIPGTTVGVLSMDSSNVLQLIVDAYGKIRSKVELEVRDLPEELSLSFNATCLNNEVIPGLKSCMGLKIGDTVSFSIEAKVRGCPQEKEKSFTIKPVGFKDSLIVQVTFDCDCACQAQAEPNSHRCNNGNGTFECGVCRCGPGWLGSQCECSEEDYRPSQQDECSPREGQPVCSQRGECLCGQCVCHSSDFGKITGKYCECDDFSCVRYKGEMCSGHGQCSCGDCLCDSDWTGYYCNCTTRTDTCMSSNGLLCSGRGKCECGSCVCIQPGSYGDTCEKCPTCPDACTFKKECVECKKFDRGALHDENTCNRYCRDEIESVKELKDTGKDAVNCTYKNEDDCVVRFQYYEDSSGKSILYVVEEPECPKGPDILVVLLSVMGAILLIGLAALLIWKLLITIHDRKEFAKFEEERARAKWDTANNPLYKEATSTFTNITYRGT
test: GpIIb/IIIa fibrinogen ELISA (inhibition of the fibrinogen-GpIIb/IIIa interaction)
condition.label: isolated activated GpIIb/IIIa receptor coated at 2 μg/ml; fibrinogen ligand, 1 hour incubation; OD at 405 nm
pIC50: −log10 of the molar value.

compound	test.target	relation.qualifier	pIC50
O=C(O)C1CCN(CC2CN(C3CCN(c4ccncc4)CC3)C(=O)O2)CC1 (racemic) [Example 2]	GpIIb/IIIa receptor (Homo sapiens, UniProt P05106+P08514)	>	6.52
O=C(O)C1CCN(CC2OC(=O)N(C3CCN(c4ccncc4)CC3)C2c2ccccc2)CC1 (centres unmarked) [10 a)]	GpIIb/IIIa receptor (Homo sapiens, UniProt P05106+P08514)	=	6.52
O=C(O)CC1(O)CCN(CC2CN(C3CCN(c4ccncc4)CC3)C(=O)O2)CC1 (centres unmarked) [Example 5]	GpIIb/IIIa receptor (Homo sapiens, UniProt P05106+P08514)	=	6.00
CC1C(CN2CCC(C(=O)O)CC2)OC(=O)N1C1CCN(c2ccncc2)CC1 (centres unmarked) [Example 7]	GpIIb/IIIa receptor (Homo sapiens, UniProt P05106+P08514)	>	6.52
O=C(O)C1CCN(CC2CN(C3CCN(c4ccnc(NCc5ccccc5)n4)CC3)C(=O)O2)CC1 (centres unmarked) [Example 9]	GpIIb/IIIa receptor (Homo sapiens, UniProt P05106+P08514)	=	7.15
O=C(O)C1CCN(CC2CN(C3CCN(c4ccncn4)CC3)C(=O)O2)CC1 (centres unmarked) [Example 8]	GpIIb/IIIa receptor (Homo sapiens, UniProt P05106+P08514)	=	6.52
O=C(O)C=C1CCN(CC2CN(C3CCN(c4ccncc4)CC3)C(=O)O2)CC1 (racemic) [Example 3]	GpIIb/IIIa receptor (Homo sapiens, UniProt P05106+P08514)	=	5.85
C[C@]1(CN2CCC(C(=O)O)CC2)CN(C2CCN(c3ccncc3)CC2)C(=O)O1 [No. 78]	GpIIb/IIIa receptor (Homo sapiens, UniProt P05106+P08514)	=	6.22

----------
test.target: GpIIb/IIIa receptor (Homo sapiens, UniProt P05106+P08514)
test: GpIIb/IIIa fibrinogen ELISA (inhibition of the fibrinogen-GpIIb/IIIa interaction)
condition.label: isolated activated GpIIb/IIIa receptor coated at 2 μg/ml; fibrinogen ligand, 1 hour incubation; OD at 405 nm
assay.endpoint: IC50 (nM)

molecule	test.target	relation.qualifier	reported.result
O=C(O)C1CCN(CC2OC(=O)N(C3CCN(c4ccncc4)CC3)C2c2cccc(C(F)(F)F)c2)CC1 (stereo not shown) [No. 79]	GpIIb/IIIa receptor (Homo sapiens, UniProt P05106+P08514)	=	1300
O=C(O)C1CCN(C[C@H]2CN(C3CCN(c4ccncc4)CC3)C(=O)O2)CC1 [Example 1]	GpIIb/IIIa receptor (Homo sapiens, UniProt P05106+P08514)	<	300
O=C(O)C1CCC(O)(CC2CN(C3CCN(c4ccncc4)CC3)C(=O)O2)CC1 (stereo not shown) [10 c)]	GpIIb/IIIa receptor (Homo sapiens, UniProt P05106+P08514)	<	300
O=C(O)C1CCN(CC2OC(=O)N(C3CCN(c4ccncc4)CC3)C2c2ccc(Cl)cc2)CC1 (stereo not shown) [No. 80]	GpIIb/IIIa receptor (Homo sapiens, UniProt P05106+P08514)	=	500

The reported numbers originate from patent US5972947A.
